Biological target: CDK9 CCNT1 (human) (UniProt P50750+O60563)
Sequence (O60563 whole entry, looked up): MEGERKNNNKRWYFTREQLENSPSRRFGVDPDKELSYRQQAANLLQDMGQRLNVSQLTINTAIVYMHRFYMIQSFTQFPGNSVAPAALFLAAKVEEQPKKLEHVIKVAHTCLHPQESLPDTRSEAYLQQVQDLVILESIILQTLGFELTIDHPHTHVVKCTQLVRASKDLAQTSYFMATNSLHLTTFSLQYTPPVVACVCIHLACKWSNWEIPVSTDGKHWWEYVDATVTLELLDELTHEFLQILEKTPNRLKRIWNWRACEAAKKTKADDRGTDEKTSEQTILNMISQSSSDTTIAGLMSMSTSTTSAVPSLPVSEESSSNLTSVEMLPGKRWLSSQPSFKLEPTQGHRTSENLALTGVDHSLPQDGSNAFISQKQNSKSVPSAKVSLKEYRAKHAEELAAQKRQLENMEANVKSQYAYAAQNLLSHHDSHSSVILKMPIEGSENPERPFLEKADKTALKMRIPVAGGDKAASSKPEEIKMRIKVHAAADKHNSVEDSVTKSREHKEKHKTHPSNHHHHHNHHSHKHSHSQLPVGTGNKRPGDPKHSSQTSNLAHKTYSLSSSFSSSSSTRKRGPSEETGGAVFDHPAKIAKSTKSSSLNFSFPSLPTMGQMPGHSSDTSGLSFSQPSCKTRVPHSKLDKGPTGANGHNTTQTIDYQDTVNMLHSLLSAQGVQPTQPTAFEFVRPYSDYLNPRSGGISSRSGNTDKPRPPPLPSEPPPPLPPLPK
Sequence (P50750 whole entry, looked up): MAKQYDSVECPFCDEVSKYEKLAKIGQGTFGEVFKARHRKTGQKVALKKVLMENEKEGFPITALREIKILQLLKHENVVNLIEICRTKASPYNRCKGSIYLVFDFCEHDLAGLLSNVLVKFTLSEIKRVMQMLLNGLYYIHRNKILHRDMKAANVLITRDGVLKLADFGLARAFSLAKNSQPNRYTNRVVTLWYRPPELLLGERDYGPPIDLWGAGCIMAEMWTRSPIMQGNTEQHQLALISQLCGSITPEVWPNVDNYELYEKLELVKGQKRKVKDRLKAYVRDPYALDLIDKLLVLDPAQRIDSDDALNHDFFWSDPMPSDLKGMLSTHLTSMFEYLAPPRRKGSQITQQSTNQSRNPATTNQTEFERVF
Assay: radiometric filter-binding kinase assay, Kinase HotSpot
Settings: compound 0.5 µM; ATP 10 µM
Threshold check on residual activity: at or above 90% gives true, strictly below gives false.

chemicalStructure	category
c1ccc(-c2n[nH]cc2-c2ccnc3ccccc23)nc1	false
CCC(=O)Nc1ccc2ncnc(Nc3cccc(Br)c3)c2c1	true
O=c1cc(N2CCOCC2)oc2c1ccc1ccccc12	true
Nc1ncnc2[nH]nc(Nc3ccc(F)cc3)c12	true
Cc1ccc(S(=O)(=O)/C=C/C#N)cc1	true
COc1cc2ncnc(Nc3cccc(Cl)c3)c2cc1OC	false
Cc1nc(Nc2ncc(C(=O)Nc3c(C)cccc3Cl)s2)cc(N2CCN(CCO)CC2)n1	false
